System: rat pituitary cells
Assay type: cell-based
condition.summary: cultured rat pituitary cells; 1 nM SRIF and 1 nM GRF(1-29)NH2; 3 hrs at 37° C.; growth hormone by radioimmunoassay; read-out: IC50 of antagonist versus 1 nM SRIF (growth hormone release)
Positions of bridges follow the written chain, without caps; N, C: chain ends. Non-standard residues stand in square brackets, D forms with d. Residues, ends and D or L forms follow the SMILES beside them. 2Nal = N[C@@H](Cc1ccc2ccccc2c1)C(=O)O; d2Nal = N[C@H](Cc1ccc2ccccc2c1)C(=O)O
reported.property: IC50 (nM)

- CC(C)[C@@H]1NC(=O)[C@H](CCCCN)NC(=O)[C@@H](Cc2c[nH]c3ccccc23)NC(=O)[C@H](Cc2ccc(O)cc2)NC(=O)[C@H](NC(=O)[C@@H](N)Cc2ccc3ccccc3c2)CSSC[C@@H](C(=O)N[C@H](Cc2ccc3ccccc3c2)C(N)=O)NC1=O [Analog No. 25] (H-[2Nal][dC]Y[dW]KVC[d2Nal]-NH2; disulfide 2-7): 280
- CC(C)[C@@H]1NC(=O)[C@H](CCCCN)NC(=O)[C@@H](Cc2c[nH]c3ccccc23)NC(=O)[C@H](Cc2ccc(O)cc2)NC(=O)[C@H](NC(=O)[C@@H](N)Cc2c[nH]c3ccccc23)CSSC[C@@H](C(=O)N[C@H](Cc2ccc3ccccc3c2)C(N)=O)NC1=O [Analog No. 24] (H-W[dC]Y[dW]KVC[d2Nal]-NH2; disulfide 2-7): 68
- CC(C)[C@@H]1NC(=O)[C@H](CCCCN)NC(=O)[C@@H](Cc2c[nH]c3ccccc23)NC(=O)[C@H](Cc2ccc(O)cc2)NC(=O)[C@H](NC(=O)[C@H](N)Cc2ccc3ccccc3c2)CSSC[C@@H](C(=O)N[C@H](Cc2ccc3ccccc3c2)C(N)=O)NC1=O [Analog No. 26] (H-[d2Nal][dC]Y[dW]KVC[d2Nal]-NH2; disulfide 2-7): 380

----------
Recorded IC50 for the following compounds
Test system: rat pituitary cells
Assay type: cell-based
condition.summary: cultured rat pituitary cells; 1 nM SRIF and 1 nM GRF(1-29)NH2; 3 hrs at 37° C.; growth hormone by radioimmunoassay; read-out: IC50 of antagonist versus 1 nM SRIF (growth hormone release)
Positions of bridges follow the written chain, without caps; N, C: chain ends. Non-standard residues stand in square brackets, D forms with d. Residues, ends and D or L forms follow the SMILES beside them. 2Nal = N[C@@H](Cc1ccc2ccccc2c1)C(=O)O; d2Nal = N[C@H](Cc1ccc2ccccc2c1)C(=O)O
reported.property: IC50

• CC(C)[C@@H]1NC(=O)[C@H](CCCCN)NC(=O)[C@@H](Cc2c[nH]c3ccccc23)NC(=O)[C@H](Cc2ccc(O)cc2)NC(=O)[C@H](NC(=O)[C@H](N)Cc2ccc3ccccc3c2)CSSC[C@@H](C(=O)N[C@@H](Cc2ccc3ccccc3c2)C(N)=O)NC1=O [Analog No. 9] (H-[d2Nal][dC]Y[dW]KVC[2Nal]-NH2; disulfide 2-7) = 1360 nM
• CC(C)[C@@H]1NC(=O)[C@H](CCCCN)NC(=O)[C@@H](Cc2c[nH]c3ccccc23)NC(=O)[C@H](Cc2ccc(O)cc2)NC(=O)[C@H](NC(=O)[C@@H](N)Cc2ccc3ccccc3c2)CSSC[C@@H](C(=O)N[C@@H](Cc2ccc3ccccc3c2)C(N)=O)NC1=O [Analog No. 2] (H-[2Nal][dC]Y[dW]KVC[2Nal]-NH2; disulfide 2-7) = 40 nM
